Where do the numbers come from? From paper PMC8775902.

Where a SMILES comes first, the peptide text is derived from it. Bridges are numbered along the chain shown (N, C = ends). [ ]: non-standard residue; d: D form. d2Nal = N[C@H](Cc1ccc2ccccc2c1)C(=O)O; Nle = CCCC[C@H](N)C(=O)O; Ahx = NCCCCCC(=O)O; βAla = NCCC(=O)O
Notes on pIC50 obtained with mu opioid receptor (MOR) (Rattus norvegicus).
Sequence (P33535 whole entry): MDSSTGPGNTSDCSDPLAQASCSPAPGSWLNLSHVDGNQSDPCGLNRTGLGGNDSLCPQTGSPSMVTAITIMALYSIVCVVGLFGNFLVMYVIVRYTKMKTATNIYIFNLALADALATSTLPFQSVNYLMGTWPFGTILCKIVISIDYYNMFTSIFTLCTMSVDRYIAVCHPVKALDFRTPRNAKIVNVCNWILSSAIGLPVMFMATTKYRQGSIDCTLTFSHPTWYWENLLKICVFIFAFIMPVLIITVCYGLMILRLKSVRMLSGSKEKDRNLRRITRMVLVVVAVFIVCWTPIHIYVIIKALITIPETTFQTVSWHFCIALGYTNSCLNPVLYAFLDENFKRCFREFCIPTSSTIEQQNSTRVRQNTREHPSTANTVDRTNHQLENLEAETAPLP
pIC50 is a log-scale quantity: -log10 of the concentration expressed in molar.

Solved entries:
[[record]]
compound = "CCCC[C@H](NC(=O)[C@@H](C)NC(=O)[C@H](Cc1ccccc1)NC(=O)CNC(=O)[C@@H](C)NC(=O)[C@@H](N)Cc1ccc(O)cc1)C(=O)N[C@H]1CC(=O)NCCCC[C@@H](C(N)=O)NC(=O)[C@H](Cc2c[nH]c3ccccc23)NC(=O)[C@H](CCCNC(=N)N)NC(=O)[C@@H](Cc2ccc3ccccc3c2)NC(=O)[C@H](Cc2c[nH]cn2)NC1=O [Compound 1, ENK-D-Ala-SHU] (H-Y[dA]GF[dA][Nle]DH[d2Nal]RWK-NH2; lactam 7-12)"
metric_name = "pIC50"
reading = 7.16

[[record]]
compound = "CCCC[C@H](NC(=O)CCCCCNC(=O)CCCCCNC(=O)[C@H](Cc1ccccc1)NC(=O)CNC(=O)[C@@H](C)NC(=O)[C@@H](N)Cc1ccc(O)cc1)C(=O)N[C@H]1CC(=O)NCCCC[C@@H](C(N)=O)NC(=O)[C@H](Cc2c[nH]c3ccccc23)NC(=O)[C@H](CCCNC(=N)N)NC(=O)[C@@H](Cc2ccc3ccccc3c2)NC(=O)[C@H](Cc2c[nH]cn2)NC1=O [Compound 4, ENK-(Ahx)2-SHU] (H-Y[dA]GF[Ahx][Ahx][Nle]DH[d2Nal]RWK-NH2; lactam 8-13)"
metric_name = "pIC50"
reading = 8.26

[[record]]
compound = "CCCC[C@H](NC(=O)CCNC(=O)[C@H](Cc1ccccc1)NC(=O)CNC(=O)[C@@H](C)NC(=O)[C@@H](N)Cc1ccc(O)cc1)C(=O)N[C@H]1CC(=O)NCCCC[C@@H](C(N)=O)NC(=O)[C@H](Cc2c[nH]c3ccccc23)NC(=O)[C@H](CCCNC(=N)N)NC(=O)[C@@H](Cc2ccc3ccccc3c2)NC(=O)[C@H](Cc2c[nH]cn2)NC1=O [Compound 2, ENK-β-Ala-SHU] (H-Y[dA]GF[βAla][Nle]DH[d2Nal]RWK-NH2; lactam 7-12)"
metric_name = "pIC50"
reading = 6.98


Here is the next item to consider.
pIC50 for mu opioid receptor (MOR) (Rattus norvegicus) with input CCCC[C@H](NC(=O)CCCCCNC(=O)[C@H](Cc1ccccc1)NC(=O)CNC(=O)[C@@H](C)NC(=O)[C@@H](N)Cc1ccc(O)cc1)C(=O)N[C@H]1CC(=O)NCCCC[C@@H](C(N)=O)NC(=O)[C@H](Cc2c[nH]c3ccccc23)NC(=O)[C@H](CCCNC(=N)N)NC(=O)[C@@H](Cc2ccc3ccccc3c2)NC(=O)[C@H](Cc2c[nH]cn2)NC1=O [Compound 3, ENK-Ahx-SHU] (H-Y[dA]GF[Ahx][Nle]DH[d2Nal]RWK-NH2; lactam 7-12) equals 7.19

###

Target: melanocortin-4 receptor (MC4R) (Homo sapiens)
Sequence (P32245 whole entry): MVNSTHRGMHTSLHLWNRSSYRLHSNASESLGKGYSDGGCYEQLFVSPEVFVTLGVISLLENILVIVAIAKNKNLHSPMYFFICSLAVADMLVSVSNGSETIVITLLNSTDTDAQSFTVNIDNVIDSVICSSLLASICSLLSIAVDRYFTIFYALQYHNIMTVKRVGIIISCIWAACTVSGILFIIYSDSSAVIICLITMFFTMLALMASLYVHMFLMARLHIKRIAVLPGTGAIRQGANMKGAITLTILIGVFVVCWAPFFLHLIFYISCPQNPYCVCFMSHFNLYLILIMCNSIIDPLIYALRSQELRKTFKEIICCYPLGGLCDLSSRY
Assay: Radioligand competitive binding, [125I]-NDP-α-MSH, HEK293 MC4R cells
Conditions: calculated as ratio of IC50 values
Method: The determinations for opioid receptors were performed in rat brain homogenates by competitive displacement using selective radioligands, namely [^3H]DAMGO (a radioligand specific for MOR) and [^3H][Ile^5,6]DELT II (a radioligand specific for DOR). […] HEK293 MC4R cells were seeded around 10^5 cell/well in a 24-well plates two days before the experiment. […] All binding parameters were determined using GraphPad Prism Software (GraphPad Software Inc., San Diego, CA, USA). […]
Where a SMILES comes first, the peptide text is derived from it. Bridges are numbered along the chain shown (N, C = ends). [ ]: non-standard residue; d: D form. d2Nal = N[C@H](Cc1ccc2ccccc2c1)C(=O)O; Nle = CCCC[C@H](N)C(=O)O; Ahx = NCCCCCC(=O)O; βAla = NCCC(=O)O
metric-name: Selectivity MC4R/DOR
// response body must contain only the number

Solved entries:
[[record]]
compound = "CCCC[C@H](NC(=O)CCCCCNC(=O)[C@H](Cc1ccccc1)NC(=O)CNC(=O)[C@@H](C)NC(=O)[C@@H](N)Cc1ccc(O)cc1)C(=O)N[C@H]1CC(=O)NCCCC[C@@H](C(N)=O)NC(=O)[C@H](Cc2c[nH]c3ccccc23)NC(=O)[C@H](CCCNC(=N)N)NC(=O)[C@@H](Cc2ccc3ccccc3c2)NC(=O)[C@H](Cc2c[nH]cn2)NC1=O [Compound 3, ENK-Ahx-SHU] (H-Y[dA]GF[Ahx][Nle]DH[d2Nal]RWK-NH2; lactam 7-12)"
metric_name = "Selectivity MC4R/DOR"
reading = 25

[[record]]
compound = "CCCC[C@H](NC(=O)CCNC(=O)[C@H](Cc1ccccc1)NC(=O)CNC(=O)[C@@H](C)NC(=O)[C@@H](N)Cc1ccc(O)cc1)C(=O)N[C@H]1CC(=O)NCCCC[C@@H](C(N)=O)NC(=O)[C@H](Cc2c[nH]c3ccccc23)NC(=O)[C@H](CCCNC(=N)N)NC(=O)[C@@H](Cc2ccc3ccccc3c2)NC(=O)[C@H](Cc2c[nH]cn2)NC1=O [Compound 2, ENK-β-Ala-SHU] (H-Y[dA]GF[βAla][Nle]DH[d2Nal]RWK-NH2; lactam 7-12)"
metric_name = "Selectivity MC4R/DOR"
reading = 190

[[record]]
compound = "CCCC[C@H](NC(=O)CCCCCNC(=O)CCCCCNC(=O)[C@H](Cc1ccccc1)NC(=O)CNC(=O)[C@@H](C)NC(=O)[C@@H](N)Cc1ccc(O)cc1)C(=O)N[C@H]1CC(=O)NCCCC[C@@H](C(N)=O)NC(=O)[C@H](Cc2c[nH]c3ccccc23)NC(=O)[C@H](CCCNC(=N)N)NC(=O)[C@@H](Cc2ccc3ccccc3c2)NC(=O)[C@H](Cc2c[nH]cn2)NC1=O [Compound 4, ENK-(Ahx)2-SHU] (H-Y[dA]GF[Ahx][Ahx][Nle]DH[d2Nal]RWK-NH2; lactam 8-13)"
metric_name = "Selectivity MC4R/DOR"
reading = 45


# Selectivity MC4R/DOR (compound: CCCC[C@H](NC(=O)[C@@H](C)NC(=O)[C@H](Cc1ccccc1)NC(=O)CNC(=O)[C@@H](C)NC(=O)[C@@H](N)Cc1ccc(O)cc1)C(=O)N[C@H]1CC(=O)NCCCC[C@@H](C(N)=O)NC(=O)[C@H](Cc2c[nH]c3ccccc23)NC(=O)[C@H](CCCNC(=N)N)NC(=O)[C@@H](Cc2ccc3ccccc3c2)NC(=O)[C@H](Cc2c[nH]cn2)NC1=O [Compound 1, ENK-D-Ala-SHU] (H-Y[dA]GF[dA][Nle]DH[d2Nal]RWK-NH2; lactam 7-12) ) is 207

###

Molecular target: delta opioid receptor (DOR) (Rattus norvegicus)
Construct: The determinations for opioid receptors were performed in rat brain homogenates
Sequence (P33533 whole entry): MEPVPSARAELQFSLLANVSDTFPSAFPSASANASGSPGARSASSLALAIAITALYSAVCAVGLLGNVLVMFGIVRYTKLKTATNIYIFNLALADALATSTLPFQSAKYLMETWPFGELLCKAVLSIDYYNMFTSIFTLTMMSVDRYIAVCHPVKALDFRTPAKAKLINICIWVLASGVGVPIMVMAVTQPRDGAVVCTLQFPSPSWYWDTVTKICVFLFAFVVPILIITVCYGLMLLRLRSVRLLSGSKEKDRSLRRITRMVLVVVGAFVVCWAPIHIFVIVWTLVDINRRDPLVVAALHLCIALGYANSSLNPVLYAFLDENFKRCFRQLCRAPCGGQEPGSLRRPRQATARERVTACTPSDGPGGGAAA
Assay: Competitive radioligand binding, [3H][Ile5,6]DELT II, rat brain homogenate
Settings: three determinations in duplicate, read-out: Affinity DOR IC50 ± SD
Where a SMILES comes first, the peptide text is derived from it. Bridges are numbered along the chain shown (N, C = ends). [ ]: non-standard residue; d: D form. d2Nal = N[C@H](Cc1ccc2ccccc2c1)C(=O)O; Nle = CCCC[C@H](N)C(=O)O; Ahx = NCCCCCC(=O)O; βAla = NCCC(=O)O
Reported IC50 values follow for various compounds
Please state the figure in nM; there is no need to write the unit.

Solved entries:
[[record]]
compound = "CCCC[C@H](NC(=O)[C@@H](C)NC(=O)[C@H](Cc1ccccc1)NC(=O)CNC(=O)[C@@H](C)NC(=O)[C@@H](N)Cc1ccc(O)cc1)C(=O)N[C@H]1CC(=O)NCCCC[C@@H](C(N)=O)NC(=O)[C@H](Cc2c[nH]c3ccccc23)NC(=O)[C@H](CCCNC(=N)N)NC(=O)[C@@H](Cc2ccc3ccccc3c2)NC(=O)[C@H](Cc2c[nH]cn2)NC1=O [Compound 1, ENK-D-Ala-SHU] (H-Y[dA]GF[dA][Nle]DH[d2Nal]RWK-NH2; lactam 7-12)"
units = "nM"
reading = 14.5

[[record]]
compound = "CCCC[C@H](NC(=O)CCCCCNC(=O)CCCCCNC(=O)[C@H](Cc1ccccc1)NC(=O)CNC(=O)[C@@H](C)NC(=O)[C@@H](N)Cc1ccc(O)cc1)C(=O)N[C@H]1CC(=O)NCCCC[C@@H](C(N)=O)NC(=O)[C@H](Cc2c[nH]c3ccccc23)NC(=O)[C@H](CCCNC(=N)N)NC(=O)[C@@H](Cc2ccc3ccccc3c2)NC(=O)[C@H](Cc2c[nH]cn2)NC1=O [Compound 4, ENK-(Ahx)2-SHU] (H-Y[dA]GF[Ahx][Ahx][Nle]DH[d2Nal]RWK-NH2; lactam 8-13)"
units = "nM"
reading = 22.3

[[record]]
compound = "CCCC[C@H](NC(=O)CCNC(=O)[C@H](Cc1ccccc1)NC(=O)CNC(=O)[C@@H](C)NC(=O)[C@@H](N)Cc1ccc(O)cc1)C(=O)N[C@H]1CC(=O)NCCCC[C@@H](C(N)=O)NC(=O)[C@H](Cc2c[nH]c3ccccc23)NC(=O)[C@H](CCCNC(=N)N)NC(=O)[C@@H](Cc2ccc3ccccc3c2)NC(=O)[C@H](Cc2c[nH]cn2)NC1=O [Compound 2, ENK-β-Ala-SHU] (H-Y[dA]GF[βAla][Nle]DH[d2Nal]RWK-NH2; lactam 7-12)"
units = "nM"
reading = 22.8


Here is the next item to consider.
IC50 for delta opioid receptor (DOR) (Rattus norvegicus) with input CCCC[C@H](NC(=O)CCCCCNC(=O)[C@H](Cc1ccccc1)NC(=O)CNC(=O)[C@@H](C)NC(=O)[C@@H](N)Cc1ccc(O)cc1)C(=O)N[C@H]1CC(=O)NCCCC[C@@H](C(N)=O)NC(=O)[C@H](Cc2c[nH]c3ccccc23)NC(=O)[C@H](CCCNC(=N)N)NC(=O)[C@@H](Cc2ccc3ccccc3c2)NC(=O)[C@H](Cc2c[nH]cn2)NC1=O [Compound 3, ENK-Ahx-SHU] (H-Y[dA]GF[Ahx][Nle]DH[d2Nal]RWK-NH2; lactam 7-12) equals 45.4
